test system: RWP1 cells; assay: Effect of anti-FZD5 Fabs on proliferation of pancreatic cancer cell lines (percent growth inhibition); type: cell-based, human; details: Fab 2 μg/ml
Exercise: state measured percent growth inhibition, RWP1 2 μg/ml for each of the molecules provided.
One number for each entry, in %.

Batch lookup, percent growth inhibition, RWP1 2 μg/ml per entry.
1. Fab-2928: anti-FZD5 Fab with antibody variable region Fv-2928; CDR SEQ ID NOs: 35, 36, 67, 105, 143, 175 (antibody, V domains shown) VH: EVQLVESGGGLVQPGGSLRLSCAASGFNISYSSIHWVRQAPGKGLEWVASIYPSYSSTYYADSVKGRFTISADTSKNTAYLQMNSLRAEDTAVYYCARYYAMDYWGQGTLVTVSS VL: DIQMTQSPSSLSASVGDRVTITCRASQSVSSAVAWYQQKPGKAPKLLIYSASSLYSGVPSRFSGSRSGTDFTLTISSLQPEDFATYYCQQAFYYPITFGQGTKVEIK
2. Fab-2932: anti-FZD5 Fab with antibody variable region Fv-2932; CDR SEQ ID NOs: 35, 36, 71, 108, 147, 153 (antibody, V domains shown) VH: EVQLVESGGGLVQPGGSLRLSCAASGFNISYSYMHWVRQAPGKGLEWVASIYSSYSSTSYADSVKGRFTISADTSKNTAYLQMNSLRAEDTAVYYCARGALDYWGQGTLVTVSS VL: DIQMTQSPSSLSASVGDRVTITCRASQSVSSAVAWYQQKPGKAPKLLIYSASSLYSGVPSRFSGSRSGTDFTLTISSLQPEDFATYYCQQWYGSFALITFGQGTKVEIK

**Result**
1. −8.19
2. 32.22
